The entries below come with measured pIC50 values attached.
target: HLA-DR DRB5*0101 (DR51) (Homo sapiens, UniProt P01903+Q30154); assay: biochemical; format: binding
No end group written: not given here.
Formally, pIC50 is defined as -log10 of the concentration c, with c in mol/L.

Recorded pIC50, per entry:
[[record]]
sequence_data = "GAPLAGAARALAHGV"
data_value = 5.11

[[record]]
sequence_data = "GAPLGGAAAALAHGV"
data_value = 4.89

[[record]]
sequence_data = "GAPLGGLARALAHGV"
data_value = 5.37

[[record]]
sequence_data = "VGGVALLPRRGPRLGV"
data_value = 4.69

[[record]]
sequence_data = "VGGVYLLARRGPRLGV"
data_value = 7.77


Specify measured pIC50 for `GAPLGAAARALAHGV` .
5.35

Fill in pIC50 for record `GAPLGGALRALAHGV`
5.27

Indicate its recorded pIC50; the sequence in question is `VGGVYLLPARGPRLGV`
7.40

----------
target: HLA-A*3301 (Homo sapiens, UniProt P04439, A270S/D185E/E176V/E277Q/E87N/F33T/G231S/H175R/I121M/I218V/I322F/K168Q/K210R/L300P/L318F/M331R/P217A/Q86R/Q94H/R138Q/T323A/T345S/T97I/V358M/Y195H); assay: biochemical; format: binding
No end group written: not given here.
Assay endpoint: pIC50
Please express pIC50 as -log10 of the molar concentration.

Example cases with answers are listed next.
[[record]]
sequence_data = "TLYQIQVMKR"
assay_endpoint = "pIC50"
data_value = 6.25

[[record]]
sequence_data = "LTISYGRK"
assay_endpoint = "pIC50"
data_value = 4.42

[[record]]
sequence_data = "MFQDPQERPRK"
assay_endpoint = "pIC50"
data_value = 6.38

[[record]]
sequence_data = "RFYSKVSEFK"
assay_endpoint = "pIC50"
data_value = 5.35

[[record]]
sequence_data = "EVYNFACTELK"
assay_endpoint = "pIC50"
data_value = 8.23


Look up and report measured pIC50 for this entry: `DTIPHAACHK`
8.03

Look up and report measured pIC50 for this entry: `KFLEERVKK`
5.01

Provide one value: measured pIC50 of `VTLDIQSTK`
5.71

Give recorded pIC50. `KQVQMMIMIK`
5.91

Output measured pIC50 for this item: `VSIRVGGQTR`
5.07

In one line, give reported pIC50 of the entry `FLFTDLRIVYR` .
7.68

Note pIC50 for the sequence shown: `SLFGPGPGK`
4.08

Kindly indicate its recorded pIC50. Item: `LVFSNVLCFR`
7.72

Look up and state reported pIC50 for `TFVHEIELK`
5.38

Consider the sequence `KVGPGGYPRR` and give its recorded pIC50.
5.10

Please indicate pIC50 recorded for `YLFNQHIKK`
5.10

Report pIC50 for `KFSEYRHYCY`
4.31

Give recorded pIC50. `STLPGPGPGRR`
5.72

Note pIC50 for the sequence shown: `RVHSIAGQYR`
6.09

Write down pIC50 measured for item `GLYNLLIRCLR`
6.40

Consider the sequence `FAFADLTVVY` . State its measured pIC50.
4.57

Note down pIC50 recorded for `EVLEIPLIDLR`
7.14

Return pIC50 for the following sequence: `KFYSKISEYK`
6.48

Please give the documented pIC50 of `FLYLLNKKNK`
6.11

Return reported pIC50. Input sequence: `RTLSKISEYR`
6.72
